Readings of Calcium in Urine within 72 hours for the listed compounds
# Test Details: Action to increase the urinary excretion of calcium (1), percutaneous administration
# Assay type: in vivo, SD male rats
# Measurement Context: percutaneous 10 μg/200 μL/kg/day once a day for 4 days; accumulated excretion 0 to 72 hours

For C=C1/C(=C\C=C2/CCC[C@]3(C)[C@@H]([C@H](C)OCCC(C)(C)O)CC[C@@H]23)C[C@@H](O)C[C@@H]1O [Maxacalcitol, reference compound] the compound record lists Calcium in Urine within 72 hours as 8.5 mg

For C=C1/C(=C\C=C2/CCC[C@]3(C)[C@@H]([C@H](C)OC(=O)CCC(C)(C)O)CC[C@@H]23)C[C@@H](O)C[C@@H]1O the compound record lists Calcium in Urine within 72 hours as 2.3 mg

# next compound below
For CC(OC(=O)CCC(C)(O)C(F)(F)F)C1=CCC2C(=CC=C3CC(O)CC(O)C3)CCCC12C (stereo not drawn) the compound record lists Calcium in Urine within 72 hours as 2.7 mg

---

# Test Details: Action to increase the urinary excretion of calcium (1), percutaneous administration
# Assay type: in vivo, SD male rats
# Measurement Context: percutaneous 10 μg/200 μL/kg/day once a day for 4 days; accumulated excretion 0 to 24 hours
Readings of Calcium in Urine within 24 hours for the listed molecules
Answer with the number, then the unit.

For C=C1/C(=C\C=C2/CCC[C@]3(C)[C@@H]([C@H](C)OCCC(C)(C)O)CC[C@@H]23)C[C@@H](O)C[C@@H]1O [Maxacalcitol, reference compound] the molecule record lists Calcium in Urine within 24 hours as 2.6 mg

For C=C1[C@H](O)CC(=C/C=C2\CCC[C@]3(C)C([C@H](C)OC(=O)CC[C@](C)(O)C(F)(F)F)=CC[C@@H]23)C[C@H]1O the molecule record lists Calcium in Urine within 24 hours as 1.1 mg

# next molecule below
For C=C1/C(=C\C=C2/CCC[C@]3(C)C([C@H](C)OC(=O)CCC(C)(O)C(F)(F)F)=CC[C@@H]23)C[C@@H](O)C[C@@H]1O (single isomer, unassigned) the molecule record lists Calcium in Urine within 24 hours as 1.4 mg

---

# Test Details: Action to increase the urinary excretion of calcium (2), intravenous administration
# Type: in vivo, SD male rats
# Measurement Context: intravenous 22.4 nmol/kg, urine collected within 24 hours after administration
Readings of Calcium in Urine for the listed compounds
All answers are understood in mg, so give the number only.

For C=C1/C(=C\C=C2/CCC[C@]3(C)[C@@H]([C@H](C)OCCC(C)(C)O)CC[C@@H]23)C[C@@H](O)C[C@@H]1O [Maxacalcitol, reference compound] the compound record lists Calcium in Urine as 2.3

For CCC(O)(CC)CCC(=O)O[C@@H](C)[C@H]1CC[C@H]2/C(=C/C=C3C[C@@H](O)C(C)[C@H](O)C3)CCC[C@]12C (stereo partly shown) the compound record lists Calcium in Urine as 0.5

For CC1[C@H](O)CC(=C/C=C2\CCC[C@]3(C)[C@@H]([C@H](C)OC(=O)CCC(C)(O)C(F)(F)F)CC[C@@H]23)C[C@H]1O (stereo partly shown) the compound record lists Calcium in Urine as 0.6

For CCC(O)(/C=C/C(=O)O[C@@H](C)[C@H]1CC[C@H]2/C(=C/C=C3C[C@@H](O)C[C@H](O)C3)CCC[C@]12C)CC the compound record lists Calcium in Urine as 0.8
